Target: T1, GST-human NOGO-A56 (human, UniProt P08515 1-218 = GST)
T1 construct: GST-tagged fusion expressed in E. coli BL21 and purified on glutathione-sepharose; coated on ELISA plates or amine-coupled to a CM5 chip; also called hNOGO; recombinant human NOGO
T1 sequence (P08515 1-218, tags or fused parts left off): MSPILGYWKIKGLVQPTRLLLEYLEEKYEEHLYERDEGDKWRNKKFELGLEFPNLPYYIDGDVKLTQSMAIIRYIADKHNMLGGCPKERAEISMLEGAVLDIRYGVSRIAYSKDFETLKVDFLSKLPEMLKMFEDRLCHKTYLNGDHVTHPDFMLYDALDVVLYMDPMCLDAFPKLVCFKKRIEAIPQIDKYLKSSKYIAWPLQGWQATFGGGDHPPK
Assay: SPR (Biacore 3000), GST-human NOGO-A56 on CM5, antibody as analyte; single experiment
pKd: −log10 of the molar value.
measured_attribute: pKd

INSERT INTO measurements (binder, obs_value) VALUES
  ('H5L6 (antibody, human IgG1, kappa, V domains shown) VH: QVQLVQSGAEVKKPGASVKVSCKASGYTFTSYWMHWVRQAPGQGLEWMGNINPSNGGTNYNEKFKSRVTMTRDTSTSTAYMELSSLRSEDTAVYYCELGQGYWGQGTLVTVSS VL: DIVMTQSPLSLPVTPGEPASISCRSSKSLLYKDGKTYLNWFLQRPGQSPQLLIYLMSTRASGVPDRFSGSGSGTDFTLKISRVEAEDVGVYYCQQLVEYPLTFGGGTKVEIKR', 7.52),
  ('H6L13 (antibody, human IgG1, kappa, V domains shown, Humanised 2A10; Human gamma1 mutated constant region and human kappa; also called H6L13 FL) VH: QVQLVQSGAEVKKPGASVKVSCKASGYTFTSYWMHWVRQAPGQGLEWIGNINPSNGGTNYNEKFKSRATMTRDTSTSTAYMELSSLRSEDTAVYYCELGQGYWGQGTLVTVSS VL: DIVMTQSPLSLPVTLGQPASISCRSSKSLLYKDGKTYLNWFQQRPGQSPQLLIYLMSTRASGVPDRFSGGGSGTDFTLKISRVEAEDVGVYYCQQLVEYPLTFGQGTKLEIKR', 8.10),
  ('H10L13 (antibody, V domains shown) VH: QVQLVQSGAEVKKPGASVKLSCKASGYTFTSYWMHWVKQAPGQGLEWIGNINPSNGGTNYNEKFKSRATLTVDKSTSTAYMELSSLRSEDTAVYYCELGQGYWGQGTLVTVSS VL: DIVMTQSPLSLPVTLGQPASISCRSSKSLLYKDGKTYLNWFQQRPGQSPQLLIYLMSTRASGVPDRFSGGGSGTDFTLKISRVEAEDVGVYYCQQLVEYPLTFGQGTKLEIK', 7.89);

These measurements were taken from patent US20060029603A1.
